System: RBL-2H3 cells
Test: Maximum tolerated concentration (cytotoxicity by lactate dehydrogenase release)
Type: cell-based, rat
Conditions: ratio between maximum tolerated concentration and IC50
Description: A commercially available cytotoxicity test was used (Promega Cytotox-One cat. #67891). The safety index (SI) of a test compound Is the ratio between the maximum tolerated concentration and the 1C50 and is used as a measure of the relative safety of the test compound.
What SI (safety index, ratio MTC/IC50) was measured for each of the following?
The reply should be a number, written without any unit.

Report measured SI (safety index, ratio MTC/IC50); entry is "CCCCCCCCCCCCCC[N+](C)(C)CCC(=O)[O-]"
18.9

Respond only with SI (safety index, ratio MTC/IC50) recorded for "CCCCCCCCCCCCCCCCN(C)CCCP(=O)(O)O"
22.7

Tell us which SI (safety index, ratio MTC/IC50) value is on record for "CCCCCCCCCCCCCC[N+](C)(C)CCS(=O)(=O)[O-]"
25.6

Assign SI (safety index, ratio MTC/IC50) to the following record: "CCCCCCCCCCCCCC[N+](C)(C)CCCP(=O)([O-])O"
71.4

Tell me SI (safety index, ratio MTC/IC50) reported for "CCCCCCCCCCCCCC[N+](C)(C)CCCS(=O)(=O)[O-]"
31.3

Return SI (safety index, ratio MTC/IC50) (reported value) for this compound: "CCCCCCCCCCCCCC[N+](C)(C)CC(=O)[O-]"
14.7

State, in one line, measured SI (safety index, ratio MTC/IC50) of "CCCCCCCCCCCC[N+](C)(C)CCCP(=O)(O)O"
32.8

Return reported SI (safety index, ratio MTC/IC50). Input compound: "CCCCCCCCCCCCCCN(C)CCS(=O)(=O)O"
17.9

Using known records, supply SI (safety index, ratio MTC/IC50) for CCCCCCCCCCCCCCCC[N+]1(CCCS(=O)(=O)[O-])CCC(O)CC1 (stereo not drawn)
11.6

Return reported SI (safety index, ratio MTC/IC50). Input compound: "Br.CCCCCCCCCCCCCCCCN(C)CCCP(=O)(OCC)OCC"
29.0

Specify reported SI (safety index, ratio MTC/IC50) for the compound shown: "CCCCCCCCCCCCCCN(C)CCCP(=O)(O)O"
33.9

Entry "CCCCCCCCCCCCCCCCCC[N+](C)(C)CCCS(=O)(=O)[O-]" needs its SI (safety index, ratio MTC/IC50) filled in; supply it.
5.3

Please look at this compound and report its SI (safety index, ratio MTC/IC50): CCCCCCCCCCCCCC[N+](C)(C)CC(CC)CS(=O)(=O)[O-] (stereo not drawn)
18.8

Return reported SI (safety index, ratio MTC/IC50). Input compound: "CCCCCCCCCCCC[N+](C)(C)CCS(=O)(=O)[O-]"
47.6

Using known records, supply SI (safety index, ratio MTC/IC50) for "CCCCCCCCCCCCN(C)CCS(=O)(=O)O"
22.7

For the compound "Br.CCCCCCCCCCCCCCN(C)CCCP(=O)(OCC)OCC" , give its measured SI (safety index, ratio MTC/IC50) value.
18.2

Give a short answer stating reported SI (safety index, ratio MTC/IC50) for CCCCCCCCCCCCCCN(C)CCCC(=O)O [Compound 1n, 4-(Methyl(Tetradecyl)Ammonio)Butanoate] .
12.5

Determine its reported SI (safety index, ratio MTC/IC50): "CCCCCCCCCCCCCCCC[N+]1(CCCS(=O)(=O)[O-])CCCCC1"
11.1
